# measuredOn: Adenosine receptor A1 (Homo sapiens)
# procedureText: Displacement of [3H]DPCPX from human Adenosine A1 receptor expressed in CHO cells at 1 uM after 60 mins
# Type: cell-based
measuredMetric: Activity
Returns: string containing the number followed by the unit.

[
  {
    "compound": "CCOC(=O)C1=C(C)NC(=O)NC1c1ccco1 (configuration not stated)",
    "Activity": "18%"
  },
  {
    "compound": "CCOC(=O)C1=C(C)Nc2nc3ccccc3n2C1c1ccco1 (racemic)",
    "Activity": "5%"
  },
  {
    "compound": "CC1=C(C(=O)OC(C)C)C(c2ccoc2)n2ccnc2N1 (racemic)",
    "Activity": "1%"
  },
  {
    "compound": "CC1=C(C(=O)OC(C)C)C(c2ccco2)n2ncnc2N1 (racemic)",
    "Activity": "2%"
  },
  {
    "compound": "CCOC(=O)C1=C(C)Nc2nccn2C1c1ccco1 (racemic)",
    "Activity": "2%"
  },
  {
    "compound": "CC1=C(C(=O)OC(C)C)C(c2cccs2)n2c(nc3ccccc32)N1 (racemic)",
    "Activity": "1%"
  }
]

Consider the record given below.
Form field: reported Activity of CCOC(=O)C1=C(C)Nc2nc3ccccc3n2C1c1cccs1 (racemic)
8%
